Hi! I'm sharing some Ki results obtained with hCA IX (Homo sapiens, UniProt Q16790).
readoutKind: Ki (µM)

[I] COc1ccc(C(=O)/C=C/c2ccccc2Br)cc1S(N)(=O)=O
[II] COc1ccc(C(C)=O)cc1S(N)(=O)=O [compound 3, 5-acetyl-2-methoxybenzene-1-sulfonamide]
Between I and II , whose recorded Ki is greater? # respond with the chosen item's label
I

* * *

molecular target: hCA I, II, IX, and XII; test: stopped-flow CO2 hydration inhibition assay, across the four isoforms; settings: read-out: average Ki value against the four tested isoforms; hCA I, II, IX, XII
readoutKind: Ki (µM)
Field: numeric (µM). Do not append units.

Could you tell me which Ki is on file for COc1ccc(C(=O)/C=C/c2cccc(Br)c2)cc1S(N)(=O)=O [4d] ?
4

* * *

Let's go through some Ki measurements on hCA I (Homo sapiens, UniProt P00915) together.
Sequence (P00915 whole entry): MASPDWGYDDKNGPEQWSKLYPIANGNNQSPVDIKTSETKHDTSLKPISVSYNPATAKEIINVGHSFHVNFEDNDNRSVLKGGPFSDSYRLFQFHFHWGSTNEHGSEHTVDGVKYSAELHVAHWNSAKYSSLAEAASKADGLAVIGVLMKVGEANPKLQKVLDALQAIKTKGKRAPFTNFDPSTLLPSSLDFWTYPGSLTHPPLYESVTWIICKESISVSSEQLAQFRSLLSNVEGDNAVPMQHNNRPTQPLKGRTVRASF

COc1ccc(C(=O)/C=C/c2ccccc2Cl)cc1S(N)(=O)=O ... > 10 µM
COc1ccc(C(=O)/C=C/c2ccc3ccccc3c2)cc1S(N)(=O)=O ... > 10 µM

Now consider a different compound.
# returns recorded Ki (system: hCA I (Homo sapiens, UniProt P00915)) for `COc1ccc(C(=O)/C=C/c2cccc(Br)c2)cc1S(N)(=O)=O`
0.85 µM

* * *

Ki values recorded for hCA II (Homo sapiens)

COc1ccc(C(=O)/C=C/c2cccc3ccccc23)cc1S(N)(=O)=O [4j] ... > 10 µM

Lab note: need Ki for COc1ccc(C(=O)/C=C/c2ccc3ccccc3c2)cc1S(N)(=O)=O [4k] on hCA II (Homo sapiens), anyone have it?
> 10 µM

Form entry - test system: hCA II (Homo sapiens); read-out: Ki; compound: COc1ccc(C(C)=O)cc1S(N)(=O)=O [compound 3, 5-acetyl-2-methoxybenzene-1-sulfonamide]
4.59 µM

Test system hCA II (Homo sapiens); read-out Ki; what value for COc1ccc(C(=O)/C=C/c2cccc(Cl)c2)cc1S(N)(=O)=O [4b] ?
> 10 µM

Query for hCA II (Homo sapiens): what Ki does the record show for COc1ccc(C(=O)/C=C/c2ccccc2Br)cc1S(N)(=O)=O [4c] ?
> 10 µM

Quick check: Ki on hCA II (Homo sapiens), item COc1ccc(C(=O)/C=C/c2cccc(Br)c2)cc1S(N)(=O)=O [4d] ?
0.5 µM

# returns recorded Ki (system: hCA II (Homo sapiens)) for COc1ccc(C(=O)/C=C/c2ccccc2Cl)cc1S(N)(=O)=O [4a]
> 10 µM

* * *

Parameter IC50: see the listing below.
system: hypoxic U251 cells; test: cells; conditions: Homo sapiens, U-251, 48 h, read-out: Cytotoxicity IC50 (μM ± SD) U251
The response must be a number in µM with no trailing unit.

What value of measured IC50 is listed for `COc1ccc(C(=O)/C=C/c2cccc(Br)c2)cc1S(N)(=O)=O` ?
14.8

If you can, please state the reported IC50 value of `COc1ccc(C(=O)/C=C/c2cccc3ccccc23)cc1S(N)(=O)=O` .
4.6

* * *

target: hCA IX (Homo sapiens)
pKi: −log10 of the molar value.
As shown below, each of these compounds has a reported pKi value.

Before answering, review these 2 worked examples.
COc1ccc(C(=O)/C=C/c2ccc3ccccc3c2)cc1S(N)(=O)=O [4k] ... < 5.00
COc1ccc(C(=O)/C=C/c2ccccc2Cl)cc1S(N)(=O)=O [4a] ... < 5.00

Lab note: next compound to report on.
Can you share its pKi? I mean this compound: COc1ccc(C(=O)/C=C/c2cccc(Cl)c2)cc1S(N)(=O)=O [4b]
< 5.00
